Assay: Oral bioavailability in Beagle dog at 2 umol/kg
Type: ADME, organism-based, Canis lupus familiaris
Conditions: in vivo

smiles_str: CN1C(=O)CC[C@H]1CN(Cc1ccc(Cl)cc1)S(=O)(=O)c1cccc(C#N)c1
bioavailability: 44%

* * *

Listed here: items and their measured pIC50.
Biological target: Potassium voltage-gated channel subfamily A member 5 (Homo sapiens, UniProt P22460)
Sequence (P22460 whole entry): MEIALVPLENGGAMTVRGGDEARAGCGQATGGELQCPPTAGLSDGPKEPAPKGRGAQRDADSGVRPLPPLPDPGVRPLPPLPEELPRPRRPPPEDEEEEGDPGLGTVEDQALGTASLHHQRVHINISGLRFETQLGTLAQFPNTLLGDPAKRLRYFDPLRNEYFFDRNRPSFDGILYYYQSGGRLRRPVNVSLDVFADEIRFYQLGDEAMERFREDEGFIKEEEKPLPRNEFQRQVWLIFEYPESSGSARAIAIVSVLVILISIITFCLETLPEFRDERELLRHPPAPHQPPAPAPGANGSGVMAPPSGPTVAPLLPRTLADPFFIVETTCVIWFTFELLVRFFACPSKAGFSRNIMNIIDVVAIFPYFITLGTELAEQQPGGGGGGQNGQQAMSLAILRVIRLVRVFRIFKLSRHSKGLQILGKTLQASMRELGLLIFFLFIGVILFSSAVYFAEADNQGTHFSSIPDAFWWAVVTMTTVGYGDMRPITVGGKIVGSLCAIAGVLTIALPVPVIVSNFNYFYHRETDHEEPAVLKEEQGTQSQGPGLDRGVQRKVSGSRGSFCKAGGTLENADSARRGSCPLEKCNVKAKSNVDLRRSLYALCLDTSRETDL
Experiment: Inhibition of human Kv1.5 ion channel expressed in CHO cells by patch clamp assay
Format: cell-based
pIC50: −log10 of the molar value.

smiles_str: O=C1CC[C@@H](CN(Cc2ccc(F)cc2)S(=O)(=O)c2cccc(F)c2)N1
tested_on: Potassium voltage-gated channel subfamily A member 5 (Homo sapiens, UniProt P22460)
bound_operator: =
pIC50: 5.14
//
smiles_str: N#Cc1cccc(S(=O)(=O)N(Cc2cccc(Cl)c2)C[C@@H]2CCC(=O)N2)c1
tested_on: Potassium voltage-gated channel subfamily A member 5 (Homo sapiens, UniProt P22460)
bound_operator: =
pIC50: 5.37
//
smiles_str: N#Cc1cccc(S(=O)(=O)N(Cc2ccccc2Cl)C[C@@H]2CCC(=O)N2)c1
tested_on: Potassium voltage-gated channel subfamily A member 5 (Homo sapiens, UniProt P22460)
bound_operator: <
pIC50: 5.00
//
smiles_str: COc1cccc(S(=O)(=O)N(Cc2ccc(F)cc2)C[C@@H]2CCC(=O)N2)c1
tested_on: Potassium voltage-gated channel subfamily A member 5 (Homo sapiens, UniProt P22460)
bound_operator: =
pIC50: 5.70
//
smiles_str: N#Cc1cccc(S(=O)(=O)N(CC[C@@H]2CCC(=O)N2)Cc2ccc(F)cc2)c1
tested_on: Potassium voltage-gated channel subfamily A member 5 (Homo sapiens, UniProt P22460)
bound_operator: =
pIC50: 5.57
